System: KHS/MAP4K5 (Homo sapiens (Human), UniProt Q9Y4K4)
Sequence (Q9Y4K4 whole entry): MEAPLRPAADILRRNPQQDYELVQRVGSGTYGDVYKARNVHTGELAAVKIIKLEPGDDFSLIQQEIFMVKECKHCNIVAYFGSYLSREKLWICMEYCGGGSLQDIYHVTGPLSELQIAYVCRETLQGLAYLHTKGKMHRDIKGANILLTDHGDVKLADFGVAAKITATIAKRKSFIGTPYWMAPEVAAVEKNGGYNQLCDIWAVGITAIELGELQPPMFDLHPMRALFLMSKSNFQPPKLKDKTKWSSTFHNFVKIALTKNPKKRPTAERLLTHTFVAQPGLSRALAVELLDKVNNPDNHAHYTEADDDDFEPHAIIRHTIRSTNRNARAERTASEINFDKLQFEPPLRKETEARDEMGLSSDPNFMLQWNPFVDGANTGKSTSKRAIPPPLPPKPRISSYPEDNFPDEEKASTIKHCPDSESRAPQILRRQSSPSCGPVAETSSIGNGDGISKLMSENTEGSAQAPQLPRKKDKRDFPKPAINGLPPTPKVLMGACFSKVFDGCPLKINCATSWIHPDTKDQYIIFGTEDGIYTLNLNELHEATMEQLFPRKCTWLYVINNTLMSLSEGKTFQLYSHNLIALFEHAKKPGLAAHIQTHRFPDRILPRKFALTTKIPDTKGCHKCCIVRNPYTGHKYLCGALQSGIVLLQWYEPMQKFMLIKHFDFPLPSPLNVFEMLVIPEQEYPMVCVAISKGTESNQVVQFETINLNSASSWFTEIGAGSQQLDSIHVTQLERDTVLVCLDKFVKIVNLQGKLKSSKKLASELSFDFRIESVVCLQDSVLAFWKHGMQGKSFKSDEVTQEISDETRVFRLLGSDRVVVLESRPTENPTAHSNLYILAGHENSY
Test: Kinase selectivity panel: KHS/MAP4K5
Type: biochemical
Reported endpoint: fold selectivity for MAP4K4 over KHS/MAP4K5

- Compound: "COc1cccc(-c2cn(-c3ccccc3)c3nc[nH]c(=O)c23)c1 [Ex-22]"
  Value: "(199) fold"
- Compound: "O=c1[nH]cnc2c1c(-c1ccc(OCCO)cc1F)cn2-c1ccccc1 [Ex-56]"
  Value: "(199) fold"

====

Test: Formulated solubility
Type: physicochemical

- Item smiles: "O=c1[nH]cnc2c1c(-c1ccc(OCC3(CO)COC3)cc1)cn2-c1ccccc1"
  solubility / µg/mL: 300

====

System: MLK1/MAP3K9 (Homo sapiens (Human))
Sequence (P80192 whole entry): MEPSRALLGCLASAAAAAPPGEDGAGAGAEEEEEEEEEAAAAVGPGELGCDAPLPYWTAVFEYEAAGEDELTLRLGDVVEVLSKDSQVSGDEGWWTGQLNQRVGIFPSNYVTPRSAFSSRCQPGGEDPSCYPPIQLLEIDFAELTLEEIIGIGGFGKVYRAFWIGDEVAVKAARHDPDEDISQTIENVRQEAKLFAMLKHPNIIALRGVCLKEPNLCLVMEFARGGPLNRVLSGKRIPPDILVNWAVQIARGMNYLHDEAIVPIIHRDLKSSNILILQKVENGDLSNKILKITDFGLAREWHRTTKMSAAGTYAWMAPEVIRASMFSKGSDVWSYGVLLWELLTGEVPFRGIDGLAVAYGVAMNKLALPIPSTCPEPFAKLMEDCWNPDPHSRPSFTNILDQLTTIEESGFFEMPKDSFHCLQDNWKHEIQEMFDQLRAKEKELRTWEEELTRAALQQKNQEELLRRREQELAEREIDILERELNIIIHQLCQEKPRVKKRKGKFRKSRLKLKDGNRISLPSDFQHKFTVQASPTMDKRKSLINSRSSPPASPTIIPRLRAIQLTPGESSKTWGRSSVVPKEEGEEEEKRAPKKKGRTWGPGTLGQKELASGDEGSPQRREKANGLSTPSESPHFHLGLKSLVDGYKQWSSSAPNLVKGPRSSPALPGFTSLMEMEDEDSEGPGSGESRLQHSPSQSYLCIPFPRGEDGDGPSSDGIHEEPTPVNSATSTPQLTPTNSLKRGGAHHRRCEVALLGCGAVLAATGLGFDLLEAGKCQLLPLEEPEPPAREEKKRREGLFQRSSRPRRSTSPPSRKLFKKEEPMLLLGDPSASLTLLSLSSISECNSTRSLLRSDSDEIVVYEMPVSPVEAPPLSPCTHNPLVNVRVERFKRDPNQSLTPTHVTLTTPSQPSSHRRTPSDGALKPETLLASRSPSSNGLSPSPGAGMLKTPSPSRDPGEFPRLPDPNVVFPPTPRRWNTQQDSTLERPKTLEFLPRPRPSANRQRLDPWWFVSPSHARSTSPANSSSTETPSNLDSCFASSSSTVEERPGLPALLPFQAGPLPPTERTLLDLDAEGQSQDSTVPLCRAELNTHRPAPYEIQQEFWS
Test: Kinase selectivity panel: MLK1/MAP3K9
Format: biochemical
Settings: read-out: pIC50 MLK1/MAP3K9 (converted)
Measured IC50, listed per entry.

- Item smiles: "COc1cccc(-c2cn(-c3ccccc3)c3nc[nH]c(=O)c23)c1"
  Unit text: "µM"
  IC50: 3.98
- Item smiles: "O=c1[nH]cnc2c1c(-c1ccc(OCCCN3CCOCC3)cc1)cn2-c1ccccc1"
  Unit text: "µM"
  IC50: 0.0794
- Item smiles: "O=c1[nH]cnc2c1c(-c1ccc(OCCO)cc1F)cn2-c1ccccc1"
  Unit text: "µM"
  IC50: 0.2
- Item smiles: "O=C1NCCN1c1ccc(-c2cn(-c3ccccc3)c3nc[nH]c(=O)c23)cc1"
  Unit text: "µM"
  IC50: 0.0631

====

Measured fraction unbound, listed per entry.
Test: Plasma protein binding (PPB)
Assay type: in vitro ADME
Settings: human, plasma; read-out: Human PPB % (converted)

- Item smiles: "O=c1[nH]cnc2c1c(-c1ccc(OCC3(CO)COC3)cc1)cn2-c1ccccc1"
  fraction unbound: 0.03
- Item smiles: "COCCOc1ccc(-c2cn(-c3ccccc3)c3nc[nH]c(=O)c23)cc1"
  fraction unbound: 0.01

====

System: human MAP4K4 kinase domain (Homo sapiens (Human))
Test: MAP4K4 kinase activity, CisBio HTRF Transcreener ADP assay
Format: biochemical
Settings: ATP at Km (10 μM), 0.5 nM kinase domain, 2 h; read-out: MAP4K4
Measured IC50, listed per entry.
Reported endpoint: IC50

- Molecule: "O=c1[nH]cnc2c1c(-c1ccccc1Cl)cn2-c1ccccc1"
  Reported endpoint: "IC50"
  Value: "0.1 to 1 µM"
- Molecule: "CCOC(=O)c1cccc(-c2cn(-c3ccccc3)c3c(=O)[nH]cnc23)c1"
  Reported endpoint: "IC50"
  Value: "> 1 µM"
- Molecule: "COc1cccc(-n2cc(-c3ccc(OCC(O)CN4CCOCC4)cc3)c3c(=O)[nH]cnc32)c1 (stereo not drawn)"
  Reported endpoint: "IC50"
  Value: "≤ 0.1 µM"
- Molecule: "O=c1[nH]cnc2c1c(-c1ccc(OCC(O)CN3CCOCC3)cc1)cn2-c1ccccc1 (stereo not drawn)"
  Reported endpoint: "IC50"
  Value: "≤ 0.1 µM"
- Molecule: "COCCOc1ccc(-c2cn(-c3cccc(F)c3)c3nc[nH]c(=O)c23)cc1"
  Reported endpoint: "IC50"
  Value: "≤ 0.1 µM"
- Molecule: "O=C1NCCN1c1ccc(-c2cn(-c3ccccc3)c3nc[nH]c(=O)c23)cc1"
  Reported endpoint: "IC50"
  Value: "≤ 0.1 µM"
- Molecule: "O=c1[nH]cnc2c1c(-c1cccc(OCCO)c1)cn2-c1ccccc1"
  Reported endpoint: "IC50"
  Value: "0.1 to 1 µM"
- Molecule: "CS(=O)(=O)c1ccc(-n2cc(-c3ccccc3)c3c(=O)[nH]cnc32)cc1"
  Reported endpoint: "IC50"
  Value: "> 1 µM"
- Molecule: "N#Cc1cccc(-c2cn(-c3ccccc3)c3nc[nH]c(=O)c23)c1"
  Reported endpoint: "IC50"
  Value: "≤ 0.1 µM"

====

System: human MAP4K4 kinase domain (Homo sapiens (Human))
Test: MAP4K4 kinase activity, CisBio HTRF Transcreener ADP assay
Type: biochemical
Settings: ATP at Km (10 μM), 0.5 nM kinase domain, 2 h; read-out: MAP4K4
pIC50: −log10 of the molar value.
Measured pIC50, listed per entry.

- Compound: "O=C(NCCO)c1cccc(-c2cn(-c3ccccc3)c3nc[nH]c(=O)c23)c1"
  pIC50: "< 6.00"
- Compound: "O=C1CCCN1c1ccc(-c2cn(-c3ccccc3)c3nc[nH]c(=O)c23)cc1"
  pIC50: "≥ 7.00"
- Compound: "COc1cccc(-c2cn(-c3ccccc3)c3nc[nH]c(=O)c23)c1"
  pIC50: "6.00 to 7.00"
- Compound: "CN1CCC(Oc2ccc(-c3cn(-c4ccccc4)c4c(=O)[nH]cnc34)cc2)CC1"
  pIC50: "≥ 7.00"
- Compound: "C[C@@H](O)COc1ccc(-c2cn(-c3ccccc3)c3nc[nH]c(=O)c23)cc1"
  pIC50: "≥ 7.00"
- Compound: "CN1CCN(CC(=O)Nc2ccc(-c3cn(-c4cccc(F)c4)c4nc[nH]c(=O)c34)cc2)CC1"
  pIC50: "≥ 7.00"
- Compound: "CN(C)CCN1CCN(c2ccc(-c3cn(-c4ccccc4)c4nc[nH]c(=O)c34)cc2)C1=O"
  pIC50: "≥ 7.00"
- Compound: "N#Cc1cc(-c2cn(-c3ccccc3)c3nc[nH]c(=O)c23)ccc1OCC(O)CN1CCOCC1 (stereo not drawn)"
  pIC50: "≥ 7.00"
- Compound: "COC(COc1ccc(-c2cn(-c3ccccc3)c3nc[nH]c(=O)c23)cc1)CN1CCOCC1 (stereo not drawn)"
  pIC50: "≥ 7.00"
- Compound: "CC(=O)Nc1cccc(-c2cn(-c3ccccc3)c3nc[nH]c(=O)c23)c1"
  pIC50: "6.00 to 7.00"
- Compound: "CN1CCN(c2ccc(-c3cn(-c4ccccc4)c4nc[nH]c(=O)c34)cc2)C1=O"
  pIC50: "≥ 7.00"
- Compound: "COc1ccc(-c2cn(-c3ccccc3)c3nc[nH]c(=O)c23)cc1"
  pIC50: "≥ 7.00"
- Compound: "CC(C)(O)COc1ccc(-c2cn(-c3ccccc3)c3nc[nH]c(=O)c23)cc1C#N"
  pIC50: "≥ 7.00"
- Compound: "Cc1cc(OCCO)ccc1-c1cn(-c2ccccc2)c2nc[nH]c(=O)c12"
  pIC50: "≥ 7.00"
- Compound: "N#Cc1ccc(-c2cn(-c3ccccc3)c3nc[nH]c(=O)c23)cc1"
  pIC50: "≥ 7.00"
- Compound: "CN1CCC(COc2ccc(-c3cn(-c4ccccc4)c4c(=O)[nH]cnc34)cc2)C1 (stereo not drawn)"
  pIC50: "< 6.00"
- Compound: "O=c1[nH]cnc2c1c(-c1ccccc1F)cn2-c1ccccc1"
  pIC50: "6.00 to 7.00"
- Compound: "O=c1[nH]cnc2c(-c3ccc(OCC(O)CO)cc3)cn(-c3ccccc3)c12 (stereo not drawn)"
  pIC50: "6.00 to 7.00"

====

System: VEGFR
Test: Kinase selectivity panel: VEGFR
Format: biochemical
Measured pIC50 VEGFR, listed per entry.

- Item smiles: "COc1cccc(-c2cn(-c3ccccc3)c3nc[nH]c(=O)c23)c1"
  pIC50 VEGFR: 4.9
- Item smiles: "O=c1[nH]cnc2c1c(-c1ccc(OCCO)cc1F)cn2-c1ccccc1"
  pIC50 VEGFR: 4.5
- Item smiles: "COCCOc1ccc(-c2cn(-c3ccccc3)c3nc[nH]c(=O)c23)cc1"
  pIC50 VEGFR: 5.72
- Item smiles: "O=c1[nH]cnc2c1c(-c1ccc(OCCCN3CCOCC3)cc1)cn2-c1ccccc1"
  pIC50 VEGFR: 6.1
- Item smiles: "O=C1NCCN1c1ccc(-c2cn(-c3ccccc3)c3nc[nH]c(=O)c23)cc1"
  pIC50 VEGFR: 6.3

====

System: human MAP4K4 kinase domain (Homo sapiens (Human))
Test: MAP4K4 kinase activity, CisBio HTRF Transcreener ADP assay
Assay type: biochemical
Settings: read-out: IC50 (MAP4K4)

- Compound: "Oc1ncnc2c1c(-c1ccccc1)cn2-c1ccccc1 [F1386-0303, reference compound]"
  Unit text: "nM"
  IC50: 34

====

System: human MAP4K4 kinase domain (Homo sapiens (Human), UniProt O95819)
Sequence (O95819 25-289): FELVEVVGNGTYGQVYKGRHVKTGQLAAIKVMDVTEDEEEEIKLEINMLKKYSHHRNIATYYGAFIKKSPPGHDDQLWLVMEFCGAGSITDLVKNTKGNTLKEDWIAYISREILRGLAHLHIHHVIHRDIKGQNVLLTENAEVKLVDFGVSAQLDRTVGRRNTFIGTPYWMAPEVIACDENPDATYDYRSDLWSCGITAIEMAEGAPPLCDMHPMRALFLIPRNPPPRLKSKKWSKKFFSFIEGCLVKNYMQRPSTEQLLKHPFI
Test: MAP4K4 kinase activity, CisBio HTRF Transcreener ADP assay
Assay type: biochemical
Settings: read-out: pIC50 MAP4K4 (converted)
Measured IC50, listed per entry.
Reported endpoint: IC50 (nM)

- Molecule: "O=C1NCCN1c1ccc(-c2cn(-c3ccccc3)c3nc[nH]c(=O)c23)cc1 [Ex-61]"
  System: "human MAP4K4 kinase domain (Homo sapiens (Human), UniProt O95819)"
  Value: 1.58
- Molecule: "O=c1[nH]cnc2c1c(-c1ccc(OCCO)cc1F)cn2-c1ccccc1 [Ex-56]"
  System: "human MAP4K4 kinase domain (Homo sapiens (Human), UniProt O95819)"
  Value: 5.01
- Molecule: "COc1cccc(-c2cn(-c3ccccc3)c3nc[nH]c(=O)c23)c1 [Ex-22]"
  System: "human MAP4K4 kinase domain (Homo sapiens (Human), UniProt O95819)"
  Value: 158
- Molecule: "O=c1[nH]cnc2c1c(-c1ccc(OCCCN3CCOCC3)cc1)cn2-c1ccccc1 [Ex-27]"
  System: "human MAP4K4 kinase domain (Homo sapiens (Human), UniProt O95819)"
  Value: 6.31

Data provenance is patent US11795169B2.
